In this section we review reported pKi values for a set of molecules.
- assayed target: Human recombinant MMP-13 (Homo sapiens, UniProt P45452)
- Construct: made in house; host or cells: baculovirus / insect cells
- assay comment: In vitro MMP inhibition, Ki determination (fluorogenic substrate II)
- Format: biochemical
- measurement conditions: value in parenthesis
Just so you know, pKi here is -log10 of the concentration in molar units; reply with that number alone.

Would you please look over these solved cases?
Cc1ccc(-c2cccc(CCCOc3ccc(S(=O)(=O)C4(C(=O)NO)CCOCC4)cc3)c2)cc1C ... 6.84
O=C(NO)C1(S(=O)(=O)c2ccc(OCCc3cccc(-c4ccccc4Cl)c3)cc2)CCOCC1 ... 8.38
Cc1ccc(-c2cccc(CCOc3ccc(S(=O)(=O)C4(C(=O)NO)CCOCC4)cc3)c2)cc1C ... 7.68

Ask: Look up pKi for this molecule: `COCCN1CCC(C(=O)NO)(S(=O)(=O)c2ccc(OCCCc3nc(-c4ccc(CC(C)C)cc4C)no3)cc2)CC1`
Result: 7.86

Where do the numbers come from? From patent US20040024024A1.
